Target: UniProt Q04912
Sequence (Q04912 whole entry, looked up): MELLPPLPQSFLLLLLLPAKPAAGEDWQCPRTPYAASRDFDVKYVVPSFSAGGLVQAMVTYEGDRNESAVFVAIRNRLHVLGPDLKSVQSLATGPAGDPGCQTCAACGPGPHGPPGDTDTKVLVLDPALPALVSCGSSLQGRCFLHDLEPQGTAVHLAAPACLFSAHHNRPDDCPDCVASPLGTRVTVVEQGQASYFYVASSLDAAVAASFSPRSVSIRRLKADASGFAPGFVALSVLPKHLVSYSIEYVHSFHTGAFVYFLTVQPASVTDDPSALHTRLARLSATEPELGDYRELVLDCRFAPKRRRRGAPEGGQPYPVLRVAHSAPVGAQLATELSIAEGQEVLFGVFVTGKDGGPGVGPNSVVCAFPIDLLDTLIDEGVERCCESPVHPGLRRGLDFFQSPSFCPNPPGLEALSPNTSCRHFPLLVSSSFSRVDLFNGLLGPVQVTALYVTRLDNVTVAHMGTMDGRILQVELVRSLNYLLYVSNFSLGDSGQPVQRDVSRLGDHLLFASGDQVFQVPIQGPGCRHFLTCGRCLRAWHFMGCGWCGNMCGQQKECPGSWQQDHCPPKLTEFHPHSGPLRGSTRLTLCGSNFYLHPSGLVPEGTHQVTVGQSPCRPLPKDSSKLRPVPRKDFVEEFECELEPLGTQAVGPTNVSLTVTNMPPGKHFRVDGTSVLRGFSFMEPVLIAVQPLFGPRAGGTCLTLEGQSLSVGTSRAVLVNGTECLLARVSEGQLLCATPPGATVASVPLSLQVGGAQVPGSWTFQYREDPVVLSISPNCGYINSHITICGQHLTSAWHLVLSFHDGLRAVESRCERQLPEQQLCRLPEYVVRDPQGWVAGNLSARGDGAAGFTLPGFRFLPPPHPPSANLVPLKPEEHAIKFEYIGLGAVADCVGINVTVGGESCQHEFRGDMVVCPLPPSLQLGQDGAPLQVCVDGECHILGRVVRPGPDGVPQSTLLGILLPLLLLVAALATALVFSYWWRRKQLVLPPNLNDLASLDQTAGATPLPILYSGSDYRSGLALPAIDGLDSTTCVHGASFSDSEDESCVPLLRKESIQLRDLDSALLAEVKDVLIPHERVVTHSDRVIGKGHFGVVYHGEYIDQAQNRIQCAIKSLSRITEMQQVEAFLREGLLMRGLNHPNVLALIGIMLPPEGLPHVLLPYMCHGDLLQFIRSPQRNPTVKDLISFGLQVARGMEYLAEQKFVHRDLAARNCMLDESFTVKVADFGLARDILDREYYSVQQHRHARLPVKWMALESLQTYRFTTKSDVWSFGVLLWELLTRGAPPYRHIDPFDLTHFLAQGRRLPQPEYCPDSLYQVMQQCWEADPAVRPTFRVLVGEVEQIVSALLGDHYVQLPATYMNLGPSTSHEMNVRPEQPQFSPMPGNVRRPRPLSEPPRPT
Assay: radiometric filter-binding kinase assay, Kinase HotSpot
Settings: compound 0.5 µM; ATP 10 µM
reported_endpoint: residual activity (%)
Return type: number; implicit unit %.

Exercise: # lookup: residual activity of FC(F)(F)c1ccc(/C=C/c2nc(COc3ccc(CCCCn4ccnn4)cc3)co2)cc1
Key: 104

Exercise: Same read-out for O=S(=O)(NCCNC/C=C/c1ccc(Br)cc1)c1cccc2cnccc12 ?
Key: 97.4

Exercise: Check O=C(O)c1ccc2c3c1cccc3c(=O)n1c3ccccc3nc21 too.
Key: 100

Exercise: Now the compound COc1cc2c(cc1OC)-c1[nH]nc(Nc3cccc(F)c3)c1C2
Key: 99.1

Exercise: Next record, please: Cc1cc(Nc2nc(-c3ccccc3)nc3ccccc23)n[nH]1
Key: 96.6

Exercise: How about O=C1NC(=O)c2c1c1c3ccccc3[nH]c1c1[nH]c3cc(Br)ccc3c21 ?
Key: 101

Exercise: Repeat with O=C1NC(=O)c2cc(Nc3ccc(F)cc3)c(Nc3ccc(F)cc3)cc21
Key: 100

Exercise: Next record, please: O=c1c(-c2ccc(F)cc2)c(-c2ccncc2)[nH]n1-c1ccc(Cl)cc1
Key: 95

Exercise: Repeat for the following compound: Nc1ncnc2c1cnn2-c1ccccc1
Key: 100

Exercise: Cn1cc(/C=C2\C(=O)Nc3ccc(S(N)(=O)=O)cc32)c2ccccc21 ?
Key: 100

Exercise: Moving on to the next compound: COc1cc2ncnc(Nc3ccc(O)c(Br)c3)c2cc1OC
Key: 101

----------
Molecular target: EPHA7 (human) (UniProt Q15375)
Sequence (Q15375 whole entry, looked up): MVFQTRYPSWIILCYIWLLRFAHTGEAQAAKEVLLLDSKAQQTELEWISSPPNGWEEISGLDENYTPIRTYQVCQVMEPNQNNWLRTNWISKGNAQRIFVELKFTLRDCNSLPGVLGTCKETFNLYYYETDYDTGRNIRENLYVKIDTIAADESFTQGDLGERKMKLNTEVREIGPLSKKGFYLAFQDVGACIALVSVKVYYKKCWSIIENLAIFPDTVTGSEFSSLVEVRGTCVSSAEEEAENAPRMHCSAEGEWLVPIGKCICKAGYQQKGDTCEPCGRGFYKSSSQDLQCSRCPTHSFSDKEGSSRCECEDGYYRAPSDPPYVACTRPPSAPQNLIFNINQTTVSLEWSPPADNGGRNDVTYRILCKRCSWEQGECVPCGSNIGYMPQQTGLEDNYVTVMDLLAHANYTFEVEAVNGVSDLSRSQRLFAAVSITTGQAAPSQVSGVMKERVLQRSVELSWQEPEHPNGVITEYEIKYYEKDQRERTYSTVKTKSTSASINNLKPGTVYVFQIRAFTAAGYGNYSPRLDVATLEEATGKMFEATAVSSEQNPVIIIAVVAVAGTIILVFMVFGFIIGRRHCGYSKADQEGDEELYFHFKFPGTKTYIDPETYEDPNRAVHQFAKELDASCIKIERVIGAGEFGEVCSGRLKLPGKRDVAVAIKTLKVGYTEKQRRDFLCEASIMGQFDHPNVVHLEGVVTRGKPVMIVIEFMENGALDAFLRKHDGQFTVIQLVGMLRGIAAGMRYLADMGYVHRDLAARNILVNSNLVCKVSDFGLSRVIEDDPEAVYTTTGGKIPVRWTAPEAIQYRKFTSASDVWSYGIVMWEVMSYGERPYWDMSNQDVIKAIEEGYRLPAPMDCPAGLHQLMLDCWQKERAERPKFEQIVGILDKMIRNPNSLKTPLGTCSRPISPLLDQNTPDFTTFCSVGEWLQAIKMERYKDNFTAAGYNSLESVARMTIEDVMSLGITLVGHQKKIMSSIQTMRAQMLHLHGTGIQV
Test: radiometric filter-binding kinase assay, Kinase HotSpot
Details: compound 0.5 µM; ATP 10 µM
reported_endpoint: residual activity (%)
Numbers only; they are read as %.

Exercise: Entry c1ccc(-c2cnc(Nc3ccc(OCCN4CCCC4)cc3)s2)cc1 , system EPHA7 (human) (UniProt Q15375): what residual activity was measured?
Key: 98

Exercise: What about COc1cc2c(Nc3ccc(Br)cc3F)ncnc2cc1OCC1CCN(C)CC1 ?
Key: 31.8

Exercise: And then O=c1c2ccccc2[nH]c(=S)n1CCN1CCC(=C(c2ccc(F)cc2)c2ccc(F)cc2)CC1 , what is it?
Key: 96.9

Exercise: Can you check COc1cccc(-c2cc(=O)c3ccccc3o2)c1N next?
Key: 98.6

Exercise: Follow-up item: O=C(O)c1ccc2c3c1cccc3c(=O)n1c3ccccc3nc21
Key: 103

Exercise: And what about the compound CCCCc1c(-c2ccc(O)cc2)[nH]c2nccnc12 ?
Key: 89

Exercise: Quick one: O=S(=O)(NCCNC/C=C/c1ccc(Br)cc1)c1cccc2cnccc12
Key: 109

Exercise: Item: O=C(c1ccccc1)c1ccc(N2CCOCC2)cc1O
Key: 98.4

Exercise: Please give the result for N#C/C(=C1/Nc2ccccc2S1)c1ccnc(NCCc2cccnc2)n1 too.
Key: 99.4

Exercise: // same read-out, input: FC(F)(F)c1ccc(/C=C/c2nc(COc3ccc(CCCCn4ccnn4)cc3)co2)cc1
Key: 95.2

Exercise: Try this compound next: COc1cc2c(cc1OC)-c1[nH]nc(Nc3cccc(F)c3)c1C2
Key: 98

Exercise: What do we get for N#CCCc1ccc2c(c1)-c1[nH]c3ccc([N+](=O)[O-])cc3c1CC(=O)N2 ?
Key: 95.3

Exercise: Another compound to look at: O=c1[nH]c2ccccc2n1C1CCN(Cc2ccc(-c3nc4cc5[nH]cnc5cc4nc3-c3ccccc3)cc2)CC1
Key: 109

Exercise: And the next one, Cc1cc(Nc2nc(-c3ccccc3)nc3ccccc23)n[nH]1 ?
Key: 72.5

Exercise: Another compound to look at: CCc1nc(-c2ccc(OC)cc2)[nH]c1-c1ccncc1
Key: 91.6

Exercise: Now give it for Cn1cc(/C=C2\C(=O)Nc3ccc(S(N)(=O)=O)cc32)c2ccccc21 too.
Key: 41.3

Exercise: Repeat with Nc1ncnc2c1cnn2-c1ccccc1
Key: 99.2

Exercise: How about COc1cc2c(N3CCN(C(=O)Nc4ccc(OC(C)C)cc4)CC3)ncnc2cc1OCCCN1CCCCC1 ?
Key: 97.5

Exercise: And for O=c1c(-c2ccc(F)cc2)c(-c2ccncc2)[nH]n1-c1ccc(Cl)cc1 ?
Key: 98.5
